B1: TPR t1 (parent)
chain: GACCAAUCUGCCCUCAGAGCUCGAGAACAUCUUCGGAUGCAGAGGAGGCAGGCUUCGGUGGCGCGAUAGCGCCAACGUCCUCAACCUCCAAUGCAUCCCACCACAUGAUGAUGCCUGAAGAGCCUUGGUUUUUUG

- Variants of: B1
- TEST: polymerase ribozyme fitness, log enrichment relative to wild type (log ratio); higher = more active; in vitro selection for triplet polymerase activity
Below: a set of entries, each annotated with reported polymerase ribozyme fitness (log ratio).
Returns: the value as a bare number; no unit string appended.

// known answers, use as guide
{"MUTATION_LABEL": "C3A C115A", "polymerase ribozyme fitness (log ratio)": -1.99}
{"MUTATION_LABEL": "A46G G63U A121U U126A", "polymerase ribozyme fitness (log ratio)": 0.154}
{"MUTATION_LABEL": "C20G G69A G113A", "polymerase ribozyme fitness (log ratio)": -5.37}
{"MUTATION_LABEL": "A84C C124G", "polymerase ribozyme fitness (log ratio)": 1.9}
{"MUTATION_LABEL": "C11A G47A C62A", "polymerase ribozyme fitness (log ratio)": -3.74}

In: Name the reported polymerase ribozyme fitness (log ratio) value associated with the variant U33A C72A C76A
Out: -6.92

In: Name the reported polymerase ribozyme fitness (log ratio) value associated with the variant C11U C101G
Out: -2.02

In: Name the reported polymerase ribozyme fitness (log ratio) value associated with the variant C8G G47U C123U
Out: 0.786

In: Name the reported polymerase ribozyme fitness (log ratio) value associated with the variant U21C G57A C72U G77C U96A A121U U125A
Out: -3.06

In: Name the reported polymerase ribozyme fitness (log ratio) value associated with the variant G51A C88U
Out: -2.93

In: Name the reported polymerase ribozyme fitness (log ratio) value associated with the variant G45A G71A G113A C124U
Out: -2.34

In: Name the reported polymerase ribozyme fitness (log ratio) value associated with the variant G93C U109A G117U G120C
Out: -6.83

In: Name the reported polymerase ribozyme fitness (log ratio) value associated with the variant G10U C56U
Out: 0.114

In: Name the reported polymerase ribozyme fitness (log ratio) value associated with the variant A90C C123U
Out: 0.206

In: Name the reported polymerase ribozyme fitness (log ratio) value associated with the variant C64U C79U C85A A105G
Out: -5.05

In: Name the reported polymerase ribozyme fitness (log ratio) value associated with the variant C85G U130G
Out: -2.71

Recorded values, source the RNAGym collection of RNA variant scans (doi:10.1073/pnas.2313332121).
